These data points were gathered from patent US20260258115A1.

Quick reference for Neutralization IC50 (RSV subtype A) among some binders
# test_system: Respiratory Syncytial Virus fusion glycoprotein (RSV F) on RSV-A2 virus (Respiratory Syncytial Virus subtype A (RSV-A2))
# test_details: cell-based or functional assay

binder	Neutralization IC50 (RSV subtype A)
ADI-41155 (antibody, V domains shown) VH: QVQLQESGPGLVKPSETLSLTCTVSGGSIGNNFYYWGWIRQPPGKGLEWIGSIYYSGTTYDNPSLKSRVTISVEPSKNQFSLKLSSVTAADTAVYHCARRYCDSTRCYEAFDIWGQGTTVTVSS VL: SYELTQPPSASGTPGQRVTISCSGSSSNIGSNYVSWYQQLPGTAPKLLIYKNDQRPSGVPDRFSGSKSGTSASLAISGLRSEDEAEYYCAAWDDSLSGFYVFGTGTKVTVL	> 25 µg/mL
ADI-41201 (antibody, V domains shown) VH: EVQLLESGGGLVQPGGSLRLSCAASGFAFDIYSMNWVRQAPGKGLEWLSYISSRGETIYYADSVKGRFTISRDNARNSLYLQMNGLRDEDTATYYCYYYGSGISSHGGAFDYWGQGTLVTVSS VL: DIVMTQTPATLSLSPGERATLTSRASQSVSSFLAWYQQKPGQAPRLLIYDVSNRATGVPARFSGSGSGTDFTLTISSLEPEDIAVYYCQQRNTWPAITFGQGTKVEIK	> 25 µg/mL
ADI-41165 (antibody, V domains shown) VH: EVQLVETGAEVKKPGESLKISCKGSGYSFTSYWIGWVRQMPGKGLEWMGIIYPGDSDTRYSPSFQGQVTISADKSISTAYLQWSSLKASDTAMYYCARRYDYIDIWGQGTMVTVSS VL: DIRVTQSPSSLSASVGDRVTITCQASQDISNYLNWYQQKPGKAPKLLIYDASNLETGVPSRFSGSGSGTDFTFTISSLQPEDIATYYCQQYDNLAHITFGPGTKVEIK	> 25 µg/mL
